# Test system: NCI-H1395
# Method notes: relative viability (nuclei count vs DMSO), 5 days (fraction); higher = more cells survive
# Setup conditions: first compound 0.253 µM
Each record is given 1.0 if its reported relative viability is strictly below 0.8. Records at or above 0.8 are given 0.0.

# Compound, Answer label
data = [
    ("Oc1nc(-c2ccc(C(F)(F)F)cc2)nc2c1CSCC2 [XAV939] + O=C(CCCCCCC(=O)Nc1ccccc1)NO [Vorinostat] (partner 1 µM)", 1.0),
    ("Oc1nc(-c2ccc(C(F)(F)F)cc2)nc2c1CSCC2 [XAV939] + CCNC(=O)c1noc(-c2cc(C(C)C)c(O)cc2O)c1-c1ccc(CN2CCOCC2)cc1 [Luminespib] (partner 0.01 µM)", 1.0),
    ("C=C1C(=O)O[C@@H](CCCCCCCC)[C@@H]1C(=O)O [C-75] + O=C(CCCCCCC(=O)Nc1ccccc1)NO [Vorinostat] (partner 1 µM)", 1.0),
    ("Oc1nc(-c2ccc(C(F)(F)F)cc2)nc2c1CSCC2 [XAV939] + C[C@]1(O)C[C@@H](c2nc(-c3ccc4ccc(-c5ccccc5)nc4c3)c3c(N)nccn32)C1 [Linsitinib] (partner 1 µM)", 0.0),
    ("Oc1nc(-c2ccc(C(F)(F)F)cc2)nc2c1CSCC2 [XAV939] + NC(=O)Nc1cc(-c2cccc(F)c2)sc1C(=O)N[C@H]1CCCNC1 [AZD7762] (partner 0.2 µM)", 1.0),
]

---

# Test system: NCI-H1395
# Method notes: relative viability (nuclei count vs DMSO), 5 days (fraction); higher = more cells survive
# Setup conditions: first compound 0.8 µM
Below: a set of entries, each annotated with reported relative viability.

# Compound, Tested on, relative viability
rows = [
    ("Oc1nc(-c2ccc(C(F)(F)F)cc2)nc2c1CSCC2 [XAV939] + COc1cccc2cc(-c3nc([C@H]4CC[C@H](C(=O)O)CC4)n4ncnc(N)c34)[nH]c12 [OSI-027] (partner 0.5 µM)", "NCI-H1395", 0.556),
    ("C=C1C(=O)O[C@@H](CCCCCCCC)[C@@H]1C(=O)O [C-75] + COc1cccc2cc(-c3nc([C@H]4CC[C@H](C(=O)O)CC4)n4ncnc(N)c34)[nH]c12 [OSI-027] (partner 0.5 µM)", "NCI-H1395", 0.556),
    ("Oc1nc(-c2ccc(C(F)(F)F)cc2)nc2c1CSCC2 [XAV939] + CC(=O)Nc1cccc(-n2c(=O)n(C3CC3)c(=O)c3c(Nc4ccc(I)cc4F)n(C)c(=O)c(C)c32)c1 [Trametinib] (partner 0.02 µM)", "NCI-H1395", 1.11),
    ("C=C1C(=O)O[C@@H](CCCCCCCC)[C@@H]1C(=O)O [C-75] + Cc1nc(NC(=O)N2CCC[C@H]2C(N)=O)sc1-c1ccnc(C(C)(C)C(F)(F)F)c1 [Alpelisib] (partner 2 µM)", "NCI-H1395", 1.07),
    ("C=C1C(=O)O[C@@H](CCCCCCCC)[C@@H]1C(=O)O [C-75] + CS(=O)(=O)N1CCN(Cc2cc3nc(-c4cccc5[nH]ncc45)nc(N4CCOCC4)c3s2)CC1 [Pictilisib] (partner 1 µM)", "NCI-H1395", 0.539),
]
